Quick list: pKd per entry.
experimental_system: feline FcRn complex (FcRn-α subunit and β-microglobulin) (feline)
test: SPR (Biacore), FcRn on SA chip, pH 7.4
pKd: −log10 of the molar value.

binder | pKd
feline IgG1a mutant ID No. 340: S252Y, S428M, S434F, Q311R (antibody, part only; not given: Variable domains, not shown: another chain or arm of the molecule) constant: ASTTAPSVFPLAPSCGTTSGATVALACLVLGYFPEPVTVSWNSGALTSGVHTFPAVLQASGLYSLSSMVTVPSSRWLSDTFTCNVAHPPSNTKVDKTVRKTDHPPGPKPCDCPKCPPPEMLGGPSIFIFPPKPKDTLYISRTPEVTCLVVDLGPDDSDVQITWFVDNTQVYTAKTSPREEQFNSTYRVVSVLPILHRDWLKGKEFKCKVNSKSLPSPIERTISKAKGQPHEPQVYVLPPAQEELSRNKVSVTCLIKSFHPPDIAVEWEITGQPEPENNYRTTPPQLDSDGTYFVYSKLSVDRSHWQRGNTYTCSVMHEALHFHHTQKSLTQSPGK | 8.48
feline IgG1a mutant ID No. 368: S252Y, S434R, L314K (antibody, part only; not given: Variable domains, not shown: another chain or arm of the molecule) constant: ASTTAPSVFPLAPSCGTTSGATVALACLVLGYFPEPVTVSWNSGALTSGVHTFPAVLQASGLYSLSSMVTVPSSRWLSDTFTCNVAHPPSNTKVDKTVRKTDHPPGPKPCDCPKCPPPEMLGGPSIFIFPPKPKDTLYISRTPEVTCLVVDLGPDDSDVQITWFVDNTQVYTAKTSPREEQFNSTYRVVSVLPILHQDWKKGKEFKCKVNSKSLPSPIERTISKAKGQPHEPQVYVLPPAQEELSRNKVSVTCLIKSFHPPDIAVEWEITGQPEPENNYRTTPPQLDSDGTYFVYSKLSVDRSHWQRGNTYTCSVSHEALHRHHTQKSLTQSPGK | 7.59
